The values you see were collected from patent US8440666B2.

# Target under test: Human P2X7 (hP2X7) receptor (Homo sapiens)
# Construct: myc-His (from the pcDNA3.1/myc-HisA vector); expressed in transfected cells
# Measurement protocol: Dye assay: BzATP-induced Yo-Pro-1 uptake in HEK293 cells stably expressing hP2X7
# Assay type: cell-based
# Measurement parameters: BzATP (0.1 mM)-induced Yo-Pro-1 uptake, compounds 30 min pre-treatment, 90 min incubation
Please go through the items and note down their IC50.
Numbers only, in nM.

Below, each entry is followed by its recorded IC50 result.
O=C(Cn1ncc(NCC23CC4CC(CC(C4)C2)C3)c(Br)c1=O)NCc1ccncc1 [compound 60]	71
CC(NC(=O)Cn1ncc(NC2CC3CC(C2C)C3(C)C)c(Br)c1=O)c1ccnnc1 (stereo not drawn) [compound 220]	4.2
CN(C)c1cnccc1CNC(=O)Cn1ncc(NC23CC4CC(CC(C4)C2)C3)c(Cl)c1=O [compound 366]	2.6
C[C@@H]1[C@H]2C[C@@H](C[C@H]1Nc1cnn(Cc3ccccn3)c(=O)c1Br)C2(C)C [compound 87]	62
C[C@@H]1[C@H]2C[C@@H](C[C@H]1Nc1cnn(CC(=O)NC3CC3)c(=O)c1Br)C2(C)C [compound 19]	38

Look up IC50 for the entries below, preserving their order.
1. CC(C)NC(=O)Cn1ncc(N[C@@H]2C[C@@H]3C[C@H]([C@H]2C)C3(C)C)c(Br)c1=O [compound 2]
2. CCN(CC)c1ccc(C(Cn2ncc(N[C@@H]3C[C@@H]4C[C@H]([C@H]3C)C4(C)C)c(Br)c2=O)=NOC)cc1 [Synthetic Example 159]
3. CCC(NC(=O)Cn1ncc(NC2C[C@@H]3CC([C@H]2C)C3(C)C)c(OC)c1=O)c1ccncc1 (stereo partly drawn) [Synthetic Example 385]
4. CC(NC(=O)Cn1ncc(N[C@@H]2C[C@@H]3C[C@H]([C@H]2C)C3(C)C)c(Br)c1=O)c1ccccc1 (stereo partly drawn) [compound 23]
5. C[C@@H]1[C@H]2C[C@@H](C[C@H]1Nc1cnn(CC(=O)NCc3ccncc3OCC#N)c(=O)c1Cl)C2(C)C [Synthetic Example 415]
6. C[C@@H]1[C@H]2C[C@@H](C[C@H]1Nc1cnn(CC(=O)Nc3cccnc3)c(=O)c1Cl)C2(C)C [compound 227]
7. C[C@@H]1[C@H]2C[C@@H](C[C@H]1Nc1cnn(C(F)C(=O)NCc3ccncc3)c(=O)c1Br)C2(C)C (stereo partly drawn) [Synthetic Example 405]

1. 51
2. 77
3. 39
4. 34
5. 39
6. 38
7. 21

###

# Target under test: Human P2X7 (hP2X7) receptor (Homo sapiens, UniProt Q99572)
# Construct: myc-His (from the pcDNA3.1/myc-HisA vector); expressed in transfected cells
# Sequence (Q99572 whole entry): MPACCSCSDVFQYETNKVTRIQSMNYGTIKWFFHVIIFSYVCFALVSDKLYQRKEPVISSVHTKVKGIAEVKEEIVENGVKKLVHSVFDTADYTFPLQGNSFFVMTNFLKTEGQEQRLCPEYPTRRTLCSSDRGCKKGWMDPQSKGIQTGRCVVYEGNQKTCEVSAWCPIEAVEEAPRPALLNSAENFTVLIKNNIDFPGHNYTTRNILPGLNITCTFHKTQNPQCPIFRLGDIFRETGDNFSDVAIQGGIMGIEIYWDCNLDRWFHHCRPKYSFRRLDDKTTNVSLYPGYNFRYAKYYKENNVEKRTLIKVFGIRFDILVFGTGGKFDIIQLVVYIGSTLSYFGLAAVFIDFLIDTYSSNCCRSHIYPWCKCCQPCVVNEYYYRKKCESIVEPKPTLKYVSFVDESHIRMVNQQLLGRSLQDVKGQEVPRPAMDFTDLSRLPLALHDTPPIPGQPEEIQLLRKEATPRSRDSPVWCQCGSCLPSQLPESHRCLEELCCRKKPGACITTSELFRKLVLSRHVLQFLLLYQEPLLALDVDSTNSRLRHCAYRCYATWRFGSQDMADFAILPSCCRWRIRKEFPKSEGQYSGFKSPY
# Measurement protocol: Dye assay: BzATP-induced Yo-Pro-1 uptake in HEK293 cells stably expressing hP2X7
# Type: cell-based
# Measurement parameters: BzATP (0.1 mM)-induced Yo-Pro-1 uptake, compounds 30 min pre-treatment, 90 min incubation
# Protocol: Human P2X7 (hP2×7) was cloned from a normal human brain total RNA library by reverse transcription (using SuperScript II (Invitrogen)) and PCR (using KOD-plus-(TOYOBO)). […] P2X7 receptor antagonists were screened by a dye uptake assay using HEK293 cells stably expressing hP2×7. […] Then, the fluorescence (indicating the BzATP-induced Yo-Pro-1 uptake mediated by the P2X7 receptor) was measured with a microplate reader (excitation wavelength: 485 nm, emission wavelength: 535 nm). […]
Assay metric: IC50 (nM)
One number for each entry, in nM.

C[C@@H]1[C@H]2C[C@@H](C[C@H]1Nc1cnn(CC(=O)NCc3ccncc3)c(=O)c1Cl)C2(C)C [compound 135]	4.2
CC(NC(=O)Cn1ncc(N[C@@H]2C[C@@H]3C[C@@H](C3(C)C)[C@]2(C)O)c(Cl)c1=O)c1ccncc1Cl (stereo partly shown) [compound 363]	2.8
Cc1cnccc1CNC(=O)Cn1ncc(NC23CC4CC(CC2C4)C3)c(Cl)c1=O [compound 338]	5.3
C[C@@H]1[C@H]2C[C@@H](C[C@H]1Nc1cnn(CC(=O)N[C@@H](CO)c3ccccc3)c(=O)c1Cl)C2(C)C [compound 271]	14

Look up IC50 for the entries below, preserving their order.
1. C[C@@H]1[C@H]2C[C@@H](C[C@H]1Nc1cnn(CC(=O)NC(C(=O)O)c3ccccc3)c(=O)c1Br)C2(C)C (stereo partly shown) [Synthetic Example 403]
2. COc1cc(CNC(=O)Cn2ncc(N[C@@H]3C[C@@H]4C[C@H]([C@H]3C)C4(C)C)c(Br)c2=O)ccn1 [compound 104]
3. CC1(C)[C@@H]2C[C@@H](Nc3cnn(CC(=O)NCc4ccncc4)c(=O)c3Br)[C@@](C)(O)[C@H]1C2 [compound 314]
4. O=C(Cn1ncc(NC23CC4CC(CC2C4)C3)c(Br)c1=O)NCc1ccnnc1 [compound 345]

[74, 57, 34, 34]
